- Test Method Notes: solvent given as SMILES
- Measurement Conditions: in CN(C)C=O
Would you mind telling me the reported absorption maximum of each entry?
Entry rule: numbers only, all in nm.

CCN1c2ccc(-c3cc(-c4ccccc4)[nH]n3)cc2Sc2cc(-c3cc(-c4ccccc4)[nH]n3)ccc21 has a reported absorption maximum of 336

O=S(=O)([O-])c1ccccc1/C=C/c1ccc(-c2nnc(-c3ccc(/C=C/c4ccccc4S(=O)(=O)[O-])cc3)o2)cc1 has a reported absorption maximum of 348

N#CC(C#N)=C(/C=C/c1ccc(N(c2ccccc2)c2ccccc2)cc1)c1ccc2c3c(cccc13)CC2 has a reported absorption maximum of 493

COc1ccc2cc(-c3ccc(C(F)(F)F)cc3)oc(=O)c2c1 has a reported absorption maximum of 328

CCN(CC)c1ccc(/C=C2\CC/C(=C\c3ccc(N(c4ccc(/C=C5\CC/C(=C\c6ccc(N(CC)CC)cc6)C5=C(C#N)C#N)cc4)c4ccc(/C=C5\CC/C(=C\c6ccc(N(CC)CC)cc6)C5=C(C#N)C#N)cc4)cc3)C2=C(C#N)C#N)cc1 has a reported absorption maximum of 590

CCCCCCCCCCCCCCCCCCN1C(=O)c2ccc3c4ccc5c6c(ccc(c7ccc(c2c37)C1=O)c64)C(=O)N(CCCCCCCCCCCCCCCCCC)C5=O has a reported absorption maximum of 525

CCN(CC)c1ccc(/C=N/C2CCCCC2/N=C/c2ccc(N(CC)CC)cc2O)c(O)c1 (stereo unspecified) has a reported absorption maximum of 410

N#C/C(=C\c1cn(-c2ccccc2)nc1-c1ccc([N+](=O)[O-])cc1)c1nc2ccccc2s1 has a reported absorption maximum of 376

CC1=[N+]2C(=C(c3c4ccccc4c(-c4ccccc4)c4ccccc34)c3ccc(C)n3[B-]2(F)F)C=C1 has a reported absorption maximum of 517

O=C1c2ccc3c4c(Oc5ccccc5)cc5c6c(ccc(c7c(Oc8ccccc8)cc(c2c37)C(=O)N1c1ccc(O)cc1)c64)C(=O)N(c1ccc(O)cc1)C5=O has a reported absorption maximum of 495

Cc1cc(-c2ccc(-c3nc4ccccc4[nH]3)cc2)c(C)cc1-c1ccc(-c2nc3ccccc3[nH]2)cc1 has a reported absorption maximum of 323

c1ccc2c(c1)[nH]c1c3[nH]c4ccccc4c3c3nsnc3c21 has a reported absorption maximum of 410

CN(C)c1ccc(/C=C/C(=C(C#N)C#N)c2ccc3c4c(cccc24)CC3)cc1 has a reported absorption maximum of 505

CCCCCCC(CCCCCC)N1C(=O)c2cccc3c(-c4cc(OC)c(OC)c(OC)c4)ccc(c23)C1=O has a reported absorption maximum of 365.6

CCN(CC)c1ccc(/C=C2\CC/C(=C\c3ccc(N(c4ccccc4)c4ccc(/C=C5\CC/C(=C\c6ccc(N(CC)CC)cc6)C5=C(C#N)C#N)cc4)cc3)C2=C(C#N)C#N)cc1 has a reported absorption maximum of 592

COc1cc(/C=C2/SC(=O)NC2=O)ccc1O has a reported absorption maximum of 340

====

- Test Method Notes: solvent given as SMILES
- Measurement Conditions: in C1CCOC1
Readout Label: absorption maximum

O=Cc1ccc(-c2ccc(C3=CCCCC3)s2)s1 has a reported absorption maximum of 385 nm

CCCCCCCc1ccc(C2=[N+]3C(=C4c5cc(OCC(CC)CC)c(-c6ccc(CCCCCCC)o6)n5[B-](F)(F)[n+]5c4n(c4cc(C(C)(C)C)ccc45)[B-]3(F)F)C=C2OCC(CC)CC)o1 has a reported absorption maximum of 816 nm

CCCCCCCCC1(CCCCCCCC)c2cc(C#Cc3ccc(N(c4ccccc4)c4ccccc4)cc3)ccc2-c2ccc(C=O)cc21 has a reported absorption maximum of 378 nm

O=P1(c2ccccc2)C(c2cccs2)=C(c2cccs2)c2ccccc21 (centres undefined) has a reported absorption maximum of 368 nm
